Assign melting point to each entry below.

Output measured melting point for this item: CCCN1CC(C)=C(SC)C2=C1N1CN(OC)C=C1C=N2 [Example 26] 112 to 115 °C

Output measured melting point for this item: CCN1CC(C)=CC2=C1N1CN(OC)C=C1C=N2 [Example 36] 159 to 162 °C

Output measured melting point for this item: CCCN1CC(C)=C(N(S(=O)(=O)c2ccc(C)cc2)S(=O)(=O)c2ccc(C)cc2)C2=C1N1CN(OC)C=C1C=N2 [Example 77] 206 to 209 °C

Output measured melting point for this item: CON1C=C2C=NC3=C(N2C1)N(c1ccccc1)CC(C)=C3NS(C)(=O)=O [Example 81] 217 to 220 °C

Output measured melting point for this item: CCCOC1=C(C)CN(CC)C2=C1N=CC1=CN(OC)CN12 [Example 7] 78 to 81 °C

Output measured melting point for this item: CON1C=C2C=NC3=C(N(CCC(F)(F)F)CC(C)=C3NS(C)(=O)=O)N2C1 [Example 78] 250 to 253 °C

Output measured melting point for this item: CCCN1CC(C)=C(NS(=O)(=O)c2ccc(C)cc2)C2=C1N1CN(OC)C=C1C=N2 [Example 76] 229 to 232 °C

Output measured melting point for this item: CCCN1CC(C)=C(OC(C)C)C2=C1N1CN(OC)C=C1C=N2 [Example 9] 78 to 80 °C

Output measured melting point for this item: CCCN1CC(C)=C(C)C2=C1N1CN(C)C=C1C=N2 [Example 51] 104 to 107 °C

Output measured melting point for this item: CCCN1CC(C)=C(NS(=O)(=O)CCC)C2=C1N1CN(OC)C=C1C=N2 [Example 74] 203 to 206 °C

Output measured melting point for this item: CCCN1CC=C(OC)C2=C1N1CN(OC)C=C1C=N2 [Example 2] 113 to 116 °C

Output measured melting point for this item: CCN1CC(C)=C([S+](C)[O-])C2=C1N1CN(OC)C=C1C=N2 (stereo not drawn) [Example 34] 189 to 192 °C
